test: Lipophilicity, logD of compound at pH 7.4 by shake flask method; type: physicochemical; settings: buffer
Under this convention, Y denotes logD strictly below 2 and N denotes logD at or above 2.

Problem: Please check: logD for C[C@@H]1NC(=O)c2cc(N3CCOC[C@H]3C)nn2[C@@H]1C1CC1 , strictly under 2 or not?
Result: Y

Problem: Please check: logD for O=C(Nc1cc(-n2cnc3ccccc32)ccn1)C1CC1 , strictly under 2 or not?
Result: N

Problem: Please check: logD for Cn1ccc(-c2ccnc(NC(=O)C3CC3)c2)cc1=O , strictly under 2 or not?
Result: Y

Problem: Please check: logD for C[C@@H]1CNC(=O)c2cc(-c3ccnc(NC(=O)C4CC4)c3)nn21 , strictly under 2 or not?
Result: Y

Problem: Please check: logD for CC(C)[C@@H]1CNC(=O)c2cc(N3CCOCC3)nn21 , strictly under 2 or not?
Result: Y

Problem: Please check: logD for C[C@@H]1COCCN1c1cc2n(n1)[C@H](C1CCC1)CNC2=O , strictly under 2 or not?
Result: Y

Problem: Please check: logD for CC(C)[C@@H]1CNC(=O)c2cc(N3CCOC[C@H]3C)nn21 , strictly under 2 or not?
Result: Y

Problem: Please check: logD for C[C@@H]1COCCN1c1cc2n(n1)[C@H](C(C)(C)C)CNC2=O , strictly under 2 or not?
Result: Y

* * *

assay: Microsomal stability in rat liver microsome assessed as clearance at 1.0 uM preincubated for 5 mins followed by NADPH addition measured upto 60 mins by LC-MS/MS analysis; type: ADME; conditions: liver microsomes, time < 65 min
Under this convention, fulfilled denotes CLhep predicted at 1 µM strictly below 20 mL/min/kg and not fulfilled denotes CLhep predicted at 1 µM at or above 20 mL/min/kg.

Previously resolved entries follow.
C[C@@H]1COCCN1c1cc2n(n1)[C@H](C1CC1)CNC2=O = fulfilled
Cc1cnc(NC(=O)C2CC2)cc1-c1cc2n(n1)[C@H](C(C)C)CNC2=O = not fulfilled
O=C(Nc1cc2cc(-c3nncn3-c3ccccc3Cl)ccc2cn1)C1CC1F (configuration not stated) = fulfilled
CC(C)[C@@H]1CNC(=O)c2cc(N3CCOCC3)nn21 = fulfilled
C[C@@H]1NC(=O)c2cc(N3CCOC[C@H]3C)nn2[C@@H]1C1CC1 = fulfilled

Problem: Please check: CLhep predicted at 1 µM for O=C(Nc1cc(-c2ccn3ccnc3c2)ccn1)C1CC1 , strictly under 20 mL/min/kg or not?
Result: not fulfilled

Problem: Please check: CLhep predicted at 1 µM for CC(C)[C@@H]1CNC(=O)c2cc(-c3ccnc(NC(=O)C4CC4)c3)nn21 , strictly under 20 mL/min/kg or not?
Result: not fulfilled

Problem: Please check: CLhep predicted at 1 µM for C[C@@H]1COCCN1c1cc2n(n1)[C@H](C1CC1)C1(CC1)NC2=O , strictly under 20 mL/min/kg or not?
Result: fulfilled

Problem: Please check: CLhep predicted at 1 µM for O=C(Nc1cc(-n2cnc3ccccc32)ccn1)C1CC1 , strictly under 20 mL/min/kg or not?
Result: not fulfilled

* * *

Measured CLhep predicted at 1 µM, listed per entry.
assay: Microsomal stability in human liver microsome assessed as clearance at 1.0 uM preincubated for 5 mins followed by NADPH addition measured upto 60 mins by LC-MS/MS analysis; format: ADME; conditions: liver microsomes, time < 65 min

Example entries begin here.
CC(C)[C@@H]1CNC(=O)c2cc(-c3ccnc(NC(=O)C4CC4)c3)nn21 = < 0.234 L/h/kg
C[C@@H]1NC(=O)c2cc(N3CCOC[C@H]3C)nn2[C@@H]1C1CC1 = < 0.234 L/h/kg
NC(=O)c1ccccc1Nc1ccnc(NC(=O)C2CC2)c1 = 0.3 L/h/kg

Problem: Complete the entry with CLhep predicted at 1 µM for C[C@@H]1COCCN1c1cc2n(n1)[C@H](C1CCCC1)CNC2=O
Result: 0.546 L/h/kg

Problem: Complete the entry with CLhep predicted at 1 µM for C[C@@H]1COCCN1c1cc2n(n1)[C@H](C1CC1)C(C)(C)NC2=O
Result: < 0.234 L/h/kg
